System: IL-2 secretion by Jurkat T cells
Test: Inhibition of IL-2 secretion
Assay type: cell-based
Settings: Homo sapiens; Jurkat T cells stimulated with PHA, 20 to 24 hours, IL-2 by ELISA
Listing of recorded IC50 by entry.

Solved cases below.
CCc1cc2c(cc1-c1cnc(NC(=O)c3c(F)cccc3F)cn1)oc(=O)n2C [Example 70]; < 25 nM
Cc1cc2oc(=O)n(C)c2cc1-c1ccc(NC(=O)c2c(F)cccc2F)nc1 [Example 53]; 25 to 50 nM
CN1C(=O)COc2cc(-c3ccc(C(=O)Nc4c(F)cncc4F)cc3)c(C3CC3)cc21 [Example 119]; 100 to 500 nM

Query molecule follows.
Req: Answer with reported IC50 of Cn1c(=O)oc2c(C3CC3)c(-c3ccc(NC(=O)c4c(F)cccc4F)cc3)ccc21 [Example 23]
Resp: 25 to 50 nM
